Known α₂/α₁ ratio of a selection of compounds
- Test system: α₂-adrenergic receptor
- Protocol Notes: α₂-adrenergic receptor binding assay with [³H] clonidine, rat brain cortex membranes
- Measurement Context: ratio of α₂ Ki to α₁ Ki
// no unit, no text: just the number

COc1cc2c(cc1OC)C1=NC(CN3CCN(c4ccccc4)CC3)CN1C(=O)N2 (centres unmarked) = 54

Give α₂-adrenergic receptor α₂/α₁ ratio for the following compound: O=C1Nc2ccccc2C2=NC(CN3CCN(c4ccccc4Cl)CC3)CN12 (centres unmarked)
3015

Give α₂-adrenergic receptor α₂/α₁ ratio for the following compound: COc1ccccc1N1CCN(CC2CN3C(=O)Nc4ccccc4C3=N2)CC1 (centres unmarked)
2654

Give α₂-adrenergic receptor α₂/α₁ ratio for the following compound: O=C1Nc2ccccc2C2=NC(CN3CCC(Cc4ccccc4)CC3)CN12 (centres unmarked)
140

----------
Known MBP (mm Hg) 1 hour of a selection of compounds
- Protocol Notes: Antihypertensive activity: blood pressure and heart rate in anesthetized cats after i.v. administration
- Type: in vivo
- Measurement Context: anesthetized cats, dose 4.0 mg/Kg, 1 hour
- Protocol: Adult cats of either sex, 2-3 Kg, anesthetized with pentobarbital sodium (30 mg/Kg i.p.) were used. […] Body temperature was maintained at 37.5°C with a heating pad and monitored with a rectal thermometer. Blood pressure was measured with a Statham P23D pressure transducer via a polyethylene cannula conducted to a right femoral artery. Heart rate was measured through a Grass Model 7B tachograph preamplifier triggered by the pulses of arterial blood pressure. […]
Output spec: scalar in mm Hg, unitless text.

O=C1Nc2ccccc2C2=NC(CN3CCN(Cc4ccccc4)CC3)CN12 (centres unmarked) = -43.7
COc1cccc(N2CCN(CC3CN4C(=O)Nc5ccccc5C4=N3)CC2)c1 (centres unmarked) = -20.3
O=C1Nc2ccccc2C2=NC(CN3CCC(Cc4ccccc4)CC3)CN12 (centres unmarked) = -30.6
COc1cc2c(cc1OC)C1=NC(CN3CCN(c4ccccc4)CC3)CN1C(=O)N2 (centres unmarked) = -38.2

Now for another entry.
Item O=C(c1ccc(F)cc1)C1CCN(CC2CN3C(=O)Nc4ccccc4C3=N2)CC1 (centres unmarked) : provide MBP (mm Hg) 1 hour
-30

----------
- Experimental Target: α₁-Adrenergic receptor
- Protocol Notes: α₁-Adrenergic receptor binding assay with [³H] prazocin, rat brain cortex membranes
- Measurement Context: 0.2 nM [³H] prazocin, pH 7.4
- Experimental: After the removal of nuclei by centrifugation at 1000 x g for 10 min, P₂ membranes were pelleted by centrifuging the supernatant at 22,000 x g for 20 min. After two periods of centrifugation at 22,000 x g and resuspension in fresh buffer, the membrane suspension (about 2 mg/ml protein) was ready for use. […]
Experimental Endpoint: Ki (nM)
Output spec: scalar in nM, unitless text.

COc1ccccc1N1CCN(CC2CN3C(=O)Nc4ccccc4C3=N2)CC1 (centres unmarked) = 1.3

Give α₁-Adrenergic receptor Ki for the following compound: O=C1Nc2ccccc2C2=NC(CN3CCC(Cc4ccccc4)CC3)CN12 (centres unmarked)
35.8

Give α₁-Adrenergic receptor Ki for the following compound: COc1cc2c(cc1OC)C1=NC(CN3CCN(c4ccccc4)CC3)CN1C(=O)N2 (centres unmarked)
30

Give α₁-Adrenergic receptor Ki for the following compound: O=C1Nc2ccccc2C2=NC(CNC3CCN(Cc4ccccc4)CC3)CN12 (centres unmarked)
586

Give α₁-Adrenergic receptor Ki for the following compound: CN1C(=O)N2CC(CN3CCN(c4ccccc4Cl)CC3)N=C2c2ccccc21 (centres unmarked)
0.68

Give α₁-Adrenergic receptor Ki for the following compound: O=C1Nc2ccccc2C2=NC(CN3CCN(c4ccccc4Cl)CC3)CN12 (centres unmarked)
1.1

Give α₁-Adrenergic receptor Ki for the following compound: O=C1Nc2ccccc2C2=NC(CN3CCN(c4ccccc4)CC3)CN12 (centres unmarked)
2.01

Give α₁-Adrenergic receptor Ki for the following compound: O=C1Nc2ccccc2C2=NC(CN3CCN(Cc4ccccc4)CC3)CN12 (centres unmarked)
850

Give α₁-Adrenergic receptor Ki for the following compound: O=C1Nc2ccccc2C2=NC(CN3CCN(c4ccccn4)CC3)CN12 (centres unmarked)
95.9
